# System: LXRb:RXRa (NR concentration 270 nM, RXRa partner concentration 90 nM)
# Assay Info: PBM binding z-score (relative to random genomic background probes); higher = stronger binding; sequences stand for … in GC…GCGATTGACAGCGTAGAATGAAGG
Quick rule: PBM binding z-score of at least 2 means true (1), below that means false (0).

Below are worked cases with known answers.
ATATGTAGGTTATGGGTCATTCAGGTTGGTTCGC
true (1)
TCATATAGGTAATGCAGGTGAAAGTCGGCATCTA
false (0)
AGACTGAGGTTAAGATCAGGGAAACAGAATACAT
false (0)
CCTACCAGGCCAGGGTCACTCAAGCATTTCGCTT
true (1)
CCTAGTTGGTCAAGAGGTCACACACCGGATATGA
true (1)

Threshold query (PBM binding z-score >= 2) on CCTCGGAGGACAGAAGGTCAGAGCCGTCCGCTTT
false (0)

Threshold query (PBM binding z-score >= 2) on CGAGCTAGGTCAAGGACAGTGAATCTCCGCACGC
false (0)

Threshold query (PBM binding z-score >= 2) on ACTAGTTGGTGAGCTGAGGTCACACACAATTCGG
true (1)

Threshold query (PBM binding z-score >= 2) on CAAACTAGGTCACAGAGGCCAAAGTCCGTGCGTA
true (1)

Threshold query (PBM binding z-score >= 2) on TCTTGTAGATCAAAGGTAAAGAAAGCCGAAGCCT
false (0)

Threshold query (PBM binding z-score >= 2) on CCTACTGGGCTAAAAAGGTCATTGATGCCGATAA
true (1)

* * *

# Tested on: PPARg DBDmut:RXRa IVT, anti-PPARg (DBD mutation: PPARg1 K132A/R137A, NR concentration 270 nM, RXRa partner concentration 90 nM)
# Assay Info: PBM binding z-score (relative to random genomic background probes); higher = stronger binding; sequences stand for … in GC…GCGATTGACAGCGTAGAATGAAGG
Measurement Kind: PBM binding z-score
Keep it simple and answer with nothing but the number.

Answered cases to consult:
TCATATCGGTAAAAGGTGAAAGTCGGTGTGGTAA
0.579
GCGACTGGGGAAAAGCAGGTTACCATAAGGTTGG
-0.499
AATACAGGGTCATCGTAGGGCAGAGTACGCACAG
1.4
CGTCCCAGGTCATAGGAGGTCAGTGAAGACAGAT
0.856
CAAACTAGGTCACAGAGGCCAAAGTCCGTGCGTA
7.35
ATCGCTAGGTAACAAGTTCAGTGAAAGAGAGGAC
0.226
GCTAGCAGGCCATTTGGGACACTCAATGACGGGC
-0.432
TCGAGTAGGTTACCACTGGGGCATTCAGCTTTCT
0.26
AGTCAAAGTTCATCTAGCTAACGTAAGATATGCT
1.28
TTATCAAGGTGAGCTGAGGTCGTTGATCCAACTC
0.246

Which PBM binding z-score is reported for this sequence? CGTCCAAGGTCGTAGGAGGTCAGTGAAGACAGAT
-0.489

Which PBM binding z-score is reported for this sequence? ACTAGCAGGCCAAGGGTTACTCAAGATTAGTCCG
-0.596

* * *

# Tested on: VDR:RXRa (NR concentration 270 nM, RXRa partner concentration 90 nM)
# Assay Info: PBM binding z-score (relative to random genomic background probes); higher = stronger binding; sequences stand for … in GC…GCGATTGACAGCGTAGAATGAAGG
Measurement Kind: PBM binding z-score
Keep it simple and answer with nothing but the number.

Answered cases to consult:
TCATAGAGGTAAAGGTGAAAGTCGAACGATATGA
0.788
CCTACTGGGCCGAAAAGGTCATTGATGCCGATAA
4.48
TTACCAAGGTGAAGGTCGTTGCTCCCTCTGTAGA
1.36
TCGAGTAGGTTATCAATGGGGCATTCAGCTTTCT
0.361

Which PBM binding z-score is reported for this sequence? CGAACTAGGTCATTGGCAGGACAGTGAATAGTAA
2.07

Which PBM binding z-score is reported for this sequence? TCTATTAGTTGAACGGCAACCGACGAGTCCGTTT
0.759

Which PBM binding z-score is reported for this sequence? ATCGAAAGGTCGTGAGTTGAGTATACAGAAAGGC
3.51

Which PBM binding z-score is reported for this sequence? TTACCAAGTTGAAGGTCGTTGATCCCTCTGTAGA
1.13

Which PBM binding z-score is reported for this sequence? AATACAGGGTCATCGTAGACCAGAGTACGCACAG
5.04

* * *

# Tested on: PPARg DBDmut:RXRa IVT, anti-PPARg (DBD mutation: PPARg1 K132A/R137A, NR concentration 270 nM, RXRa partner concentration 90 nM)
# Assay Info: PBM binding z-score (relative to random genomic background probes); higher = stronger binding; sequences stand for … in GC…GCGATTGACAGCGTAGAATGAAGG
Each record's class is read off its PBM binding z-score using these ranges: class 1 = under -0.3, class 2 = from -0.3 up to 0.4, class 3 = 0.4 and over

CCTACAGGGCCACGAAAGGTCATTGATTCAGTGA
class 2

Place this sequence in its band: TCTTGGAGGACACGAAGGTCAGAGCTTTCCAGAG
class 2

Place this sequence in its band: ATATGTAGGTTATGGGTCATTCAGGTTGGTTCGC
class 3

Place this sequence in its band: GCTGGCAGGCCATTTGGGTCACTCAATGACGGGC
class 1

Place this sequence in its band: CCGCCTGGGGCAAGGTTACCATAACGCACAGCCA
class 1

Place this sequence in its band: CCTTACGGGACACTCCAGGTTATAGCATCGGAGT
class 2

Place this sequence in its band: CAGCCTAGATCAGGGCCAGTATAGGAGGAACGTT
class 1

* * *

The following sequences are shown together with reported PBM binding z-score values.
# Test system: RARa homodimer (NR concentration 270 nM)
# Assay Info: PBM binding z-score (relative to random genomic background probes); higher = stronger binding; sequences stand for … in GC…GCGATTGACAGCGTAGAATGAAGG
Keep it simple and answer with nothing but the number.

CCTAGCAGGCCAATCTGGTTCACTCAAGGCTTGA
-0.882
TCTGCTAGGTCAGTTGGTCAGCCAACGAGCTGCC
-1.63

Which PBM binding z-score is reported for this sequence? CGTCCAAGGTCAATGCTAGGACAGTGAAAGCATT
-0.11

Which PBM binding z-score is reported for this sequence? TTACCAAGATGAAGGTCGTTGATCCCTCTGTAGA
0.48

Which PBM binding z-score is reported for this sequence? GCTGCTAGGTCAGATTGGTCAGCTAACGGGTACG
-0.468

Which PBM binding z-score is reported for this sequence? GCATATAGGTAATACAAGGTGAAAGTTCGATTGT
1.1

* * *

# Test system: RXRa DBDmut IVT, anti-RXR (DBD mutation: RXRa K156A/R161A, NR concentration 90 nM)
# Assay Info: PBM binding z-score (relative to random genomic background probes); higher = stronger binding; sequences stand for … in GC…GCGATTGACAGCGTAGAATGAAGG
Quick rule: PBM binding z-score of at least 1 means Fulfilled, below that means Not fulfilled.

Below are worked cases with known answers.
ATCGAAAGGTCGAGGTGATTATAGAGAAAGGGAA
Not fulfilled
GCTGTTAGGTCAGGTTGGTCAGCTAACGGGTACG
Not fulfilled
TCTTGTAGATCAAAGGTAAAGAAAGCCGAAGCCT
Not fulfilled
CAAACTAGGTCAAGATGTCAAAGTCCGCTTCCCG
Fulfilled
TAGCCAAGGTCATGGGCCAGTATACCACGCGAAC
Fulfilled
AGAATGAGGTTACCAAAGATCAGGAAAACGCTTG
Fulfilled

Threshold query (PBM binding z-score >= 1) on TAGCCTAGGTCATGGGCCAGTAGACCACGCGAAC
Not fulfilled

Threshold query (PBM binding z-score >= 1) on CAAACTAGCTCAAAGGTCAAAGTCGAGCCAACCA
Fulfilled

Threshold query (PBM binding z-score >= 1) on TCTTGTAGATCAGAAGGTTAAGAAAGCTGGCCAA
Not fulfilled

* * *

# Tested on: PPARg:RXRa (NR concentration 180 nM, RXRa partner concentration 90 nM)
# Assay Info: PBM binding z-score (relative to random genomic background probes); higher = stronger binding; sequences stand for … in GC…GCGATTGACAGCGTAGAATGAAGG
Measurement Kind: PBM binding z-score
Keep it simple and answer with nothing but the number.

Answered cases to consult:
ACAGACAGGTCAGTGAAGGTAACTCAGCTGGACG
1.18
TCATAGAGGTAAACAGGTGAAAGTCCGTAAGTTA
1.65
CCGACTGCGGCATAAGGTTACCATAAGCCAGCCC
0.575
AGAACGAGGGCAATAAGTTGATAGCACGGGTGGC
1.44
ACTATTAGTTGACTTGGGGCAACCGATACGACGC
0.902

Now for a further sequence.
Notebook entry, PPARg:RXRa (NR concentration 180 nM, RXRa partner concentration 90 nM) assay: PBM binding z-score of CGAACTAGGTCAGAACGGGACAGTGAAGGATGAT = ?
5.01
